Overview of reported melting point across a group of molecules:

Worked examples follow.
INSERT INTO results (item_smiles, readout_name, measurement) VALUES
  ('CNC(=O)Oc1ccc(NS(C)(=O)=O)c(C)c1', 'melting point', '167 to 169 °C'),
  ('O=C(c1ccccc1)c1nsc2nc3ccccc3n12', 'melting point', '190 to 191 °C');

Next molecule, please.
input: Suppose we examine the molecule "ClCC1(CCl)Cc2cccc3cccc1c23" ; what melting point value has been reported?
output: 212 to 213 °C

---

Here, each record is paired with measured melting point data.

INSERT INTO results (item_smiles, measurement) VALUES
  ('CC1=C(C(=O)O)CCC(C)(C)C1', '108 to 110 °C'),
  ('CC(C)n1nc(-c2sc(NC(=O)C3CCCCC3)nc2-c2ccccc2)ccc1=O', '234 to 236 °C');

input: Item "Cc1nc2cnc3ccccc3c2s1" has what recorded melting point?
output: 95.5 to 97.5 °C
